target: CDK8/Cyclin C (Homo sapiens, UniProt P49336); experiment: NanoBRET live-cell target engagement, NanoLuc-CDK8/Cyclin C in HEK-293; format: binding; settings: 10µM; average of experiments; read-out: CDK8/C Inhibition at 10µM (%)
Sequence (P49336 whole entry): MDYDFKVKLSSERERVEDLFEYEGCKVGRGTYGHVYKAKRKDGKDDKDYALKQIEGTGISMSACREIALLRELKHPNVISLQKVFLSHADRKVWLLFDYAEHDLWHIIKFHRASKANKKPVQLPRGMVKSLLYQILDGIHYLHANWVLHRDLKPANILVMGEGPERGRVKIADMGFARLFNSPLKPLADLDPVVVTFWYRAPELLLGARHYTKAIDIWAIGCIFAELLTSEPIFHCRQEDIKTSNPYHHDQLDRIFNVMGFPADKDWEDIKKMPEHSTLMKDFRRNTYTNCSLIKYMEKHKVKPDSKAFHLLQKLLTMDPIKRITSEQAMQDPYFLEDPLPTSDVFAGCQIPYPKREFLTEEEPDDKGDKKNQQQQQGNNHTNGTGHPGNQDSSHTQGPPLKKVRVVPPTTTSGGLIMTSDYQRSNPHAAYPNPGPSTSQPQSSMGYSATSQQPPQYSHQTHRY
Sequence (P24863 whole entry partner): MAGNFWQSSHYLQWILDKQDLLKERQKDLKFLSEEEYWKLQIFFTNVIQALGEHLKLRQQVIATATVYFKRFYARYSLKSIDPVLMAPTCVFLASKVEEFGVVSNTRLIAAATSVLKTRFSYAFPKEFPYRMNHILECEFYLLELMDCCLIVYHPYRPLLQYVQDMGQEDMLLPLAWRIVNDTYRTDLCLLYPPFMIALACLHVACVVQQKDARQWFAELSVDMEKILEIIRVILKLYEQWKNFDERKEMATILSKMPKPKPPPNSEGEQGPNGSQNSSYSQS
Measure: inhibition at 10 µM (%)

> print(dat)
                                        smi                               test.system  quantitative.result
1  CN1C/C=C/CCOc2cccc(c2)-c2ccnc(n2)Nc2cccc(c2)C1  CDK8/Cyclin C (Homo sapiens, UniProt P49336)                 72.3
2  CN1CCN(c2ccc(Nc3ncc4cc5n(c4n3)C3(CCCCC3)CNC5=O)nc2)CC1  CDK8/Cyclin C (Homo sapiens, UniProt P49336)                  7.6
3  COCCN1CCN(Cc2ccc(-c3n[nH]c4c3C(=O)c3c(NC(=O)NN5CCOCC5)cccc3-4)cc2)CC1  CDK8/Cyclin C (Homo sapiens, UniProt P49336)                 55.6
4  CN(C)C(=O)c1cc2cnc(Nc3ccc(N4CCNCC4)cn3)nc2n1C1CCCC1  CDK8/Cyclin C (Homo sapiens, UniProt P49336)                  0.6
5  CC(C)CC(=O)Nc1[nH]nc2c1CN(C(=O)C1CCN(C)CC1)C2(C)C  CDK8/Cyclin C (Homo sapiens, UniProt P49336)                 57.2
6  CN(C)C/C=C/C(=O)Nc1ccc(C(=O)N2CCC[C@@H](Nc3ncc(Cl)c(-c4c[nH]c5ccccc45)n3)C2)cc1  CDK8/Cyclin C (Homo sapiens, UniProt P49336)                   41
7  CC(C)[C@H](CO)Nc1nc(Nc2ccc(C(=O)O)c(Cl)c2)c2ncn(C(C)C)c2n1  CDK8/Cyclin C (Homo sapiens, UniProt P49336)                  1.6

// provenance: paper PMC7265341
